Where these numbers come from: paper PMC4336329

Target: human ether-à-go-go-related gene (hERG) potassium channel (human);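 further: peak tail current of the secondary pulse compared with the same well before compound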
Sequence (Q12809 whole entry, looked up): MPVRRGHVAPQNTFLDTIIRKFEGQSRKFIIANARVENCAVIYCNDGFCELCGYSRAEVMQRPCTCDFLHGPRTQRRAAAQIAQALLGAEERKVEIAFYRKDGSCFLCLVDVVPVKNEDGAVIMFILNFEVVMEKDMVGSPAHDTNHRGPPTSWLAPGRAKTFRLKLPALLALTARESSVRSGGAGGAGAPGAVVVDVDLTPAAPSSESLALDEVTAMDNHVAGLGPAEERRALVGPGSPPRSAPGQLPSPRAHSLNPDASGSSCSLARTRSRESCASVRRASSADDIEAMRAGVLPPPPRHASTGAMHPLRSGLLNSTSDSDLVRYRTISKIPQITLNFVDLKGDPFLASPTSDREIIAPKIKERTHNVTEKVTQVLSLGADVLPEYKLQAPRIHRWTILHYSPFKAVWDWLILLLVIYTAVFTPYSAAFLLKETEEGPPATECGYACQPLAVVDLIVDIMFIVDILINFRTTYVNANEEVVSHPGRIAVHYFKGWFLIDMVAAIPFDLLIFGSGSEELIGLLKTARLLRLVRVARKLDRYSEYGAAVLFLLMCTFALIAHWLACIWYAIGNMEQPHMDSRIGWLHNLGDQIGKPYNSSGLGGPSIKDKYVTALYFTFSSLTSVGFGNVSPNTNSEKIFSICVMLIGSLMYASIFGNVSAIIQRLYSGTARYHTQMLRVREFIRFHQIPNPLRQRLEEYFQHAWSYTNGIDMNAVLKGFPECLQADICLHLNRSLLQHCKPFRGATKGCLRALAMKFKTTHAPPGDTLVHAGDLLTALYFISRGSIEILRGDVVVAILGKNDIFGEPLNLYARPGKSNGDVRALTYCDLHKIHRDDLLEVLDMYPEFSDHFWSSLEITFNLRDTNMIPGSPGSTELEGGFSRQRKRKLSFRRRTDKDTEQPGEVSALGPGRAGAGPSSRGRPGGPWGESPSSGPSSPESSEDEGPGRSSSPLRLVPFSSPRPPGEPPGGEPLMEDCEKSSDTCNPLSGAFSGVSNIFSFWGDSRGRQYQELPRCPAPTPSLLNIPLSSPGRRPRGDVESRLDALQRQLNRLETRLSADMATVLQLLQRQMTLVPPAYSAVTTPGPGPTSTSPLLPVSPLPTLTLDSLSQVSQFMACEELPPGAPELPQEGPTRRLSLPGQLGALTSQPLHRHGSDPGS
Assay: primary screen, population patch clamp on CHO cells stably expressing hERG; higher = less effect of the substance
Among all 310,000 compounds or so, about 14,000 (4.5%) showed an effect of 50% or more. The effect is printed as a negative number. Shown is part of a subset that was picked to be rich in strong results.
# maps each entry to its hERG current change (%, negative = inhibition) at 10uM
Reply with just the number (in %).

[
  {
    "compound": "COc1cccc(-c2csc(/C(C#N)=C/Nc3cc4oc5ccccc5c4cc3OC)n2)c1",
    "measured-result": 12.8
  }
]

Lab entry: human ether-à-go-go-related gene (hERG) potassium channel (human) assay, compound CC12CN(C(=O)c3ccccc3Br)CC(C)(CN(C(=O)c3ccccc3Br)C1)C2=O , hERG current change (%, negative = inhibition) at 10uM = -4.96

Lab entry: human ether-à-go-go-related gene (hERG) potassium channel (human) assay, compound Cc1ccc(NC(=O)CSc2nc(=O)n(CCCN3CCOCC3)c3c2CCCC3)cc1 , hERG current change (%, negative = inhibition) at 10uM = -45.5
